# Test system: SK-BR-3 cells
# METHOD: Measurement of cell growth inhibition (crystal violet staining method)
# Assay type: cell-based
# CONDITION_CONTEXT: Homo sapiens; breast cancer SK-BR-3 cells, 72 hr culture with test substance
pIC50: −log10 of the molar value.
PROPERTY_LABEL: pIC50

                                   compound  value_relation_sign  readout_value
0  CCNc1c(C(N)=O)ccc(-n2nc(C(C)C)c3c(-n4cnc(-c5cnn(C)c5)c4)ccnc32)c1C [Example 132]                    =           7.00
1  NC(=O)c1ccc(-n2ccc3ccccc32)c(Cl)c1 [Comparative Example 6, reference compound]                    <           5.00
2  CC(C)c1nn(-c2ccc(C(N)=O)c(N[C@H]3CC[C@H](O)CC3)c2)c2nccc(-c3cccnc3)c12 [Example 7]                    =           6.64
3  Cc1c(C(N)=O)ccc(-n2nc(C(C)C)c3c(-n4cnc(-c5cnn(C)c5)c4)ccnc32)c1C [Example 129]                    =           5.95
